Where do these numbers come from? They come from paper PMC8785688.

- target: h15-LOX-2 (Homo sapiens)
- Sequence (O15296 1-676): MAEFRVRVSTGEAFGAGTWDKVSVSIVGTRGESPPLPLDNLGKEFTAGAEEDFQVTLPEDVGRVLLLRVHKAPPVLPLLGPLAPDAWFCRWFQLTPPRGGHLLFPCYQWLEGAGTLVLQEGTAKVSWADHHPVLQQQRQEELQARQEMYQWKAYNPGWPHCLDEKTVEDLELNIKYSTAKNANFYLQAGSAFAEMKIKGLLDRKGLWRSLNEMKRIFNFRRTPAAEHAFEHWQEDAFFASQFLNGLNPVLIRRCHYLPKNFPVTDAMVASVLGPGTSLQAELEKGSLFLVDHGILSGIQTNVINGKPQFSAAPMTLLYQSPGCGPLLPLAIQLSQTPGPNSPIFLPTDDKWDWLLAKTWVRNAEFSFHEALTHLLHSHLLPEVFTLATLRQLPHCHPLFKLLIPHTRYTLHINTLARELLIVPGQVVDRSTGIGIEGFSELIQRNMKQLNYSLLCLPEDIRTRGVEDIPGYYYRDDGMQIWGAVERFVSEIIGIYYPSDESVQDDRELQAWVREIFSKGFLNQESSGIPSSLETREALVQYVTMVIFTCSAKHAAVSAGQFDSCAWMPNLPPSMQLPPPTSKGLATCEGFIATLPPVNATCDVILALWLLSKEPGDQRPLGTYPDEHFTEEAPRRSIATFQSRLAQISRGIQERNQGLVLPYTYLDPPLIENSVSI
pIC50: −log10 of the molar value.
endpoint: pIC50

query: Which pIC50 is listed for Fc1ccc(CSc2nccn2-c2ccccc2)cc1 ?
result: < 4.00
